Data provenance: ChEMBL document CHEMBL3797054

assay.comment: Oral bioavailability in hairy mouse blood at 30 umol/kg
Assay type: ADME, organism-based
endpoint: bioavailability (%)
Kindly answer with a numeric value in %, unit omitted.

# lookup: bioavailability of CN(C)C(=O)c1cc(CN2CCOc3c(F)cccc32)c2oc(N3CCOCC3)cc(=O)c2c1 47

====

Parameter: logD. Scope: all listed entries.
assay.comment: physchem
details: buffer, pH 7.4

>>> df
                                chem_smiles  val
0  COCCN(Cc1cc(C(=O)N(C)C)cc2c(=O)cc(N3CCOCC3)oc12)c1cc(F)cc(F)c1  2.1
1  C[C@@H]1CN(c2cc(=O)c3cc(C(=O)N(C)C)cc(CN(C)c4cc(F)cc(F)c4)c3o2)CCO1  2.7

# lookup: logD of C[C@@H]1CN(c2cc(=O)c3cc(C(=O)N4CCOCC4)cc(CN4CCOc5ccc(F)cc54)c3o2)CCO1 2

For CN(C)C(=O)c1cc(CN(CC#N)c2cc(F)cc(F)c2)c2oc(N3CCOCC3)cc(=O)c2c1 then? 1.5

====

assay.comment: Clearance in hairy mouse blood at 5 umol/kg, iv and 30 umol/kg, po
Format: ADME, organism-based
endpoint: clearance (mL/min/kg)
Kindly answer with a numeric value in mL/min/kg, unit omitted.

# lookup: clearance of CN(C)C(=O)c1cc(CN2CCOc3c(F)cccc32)c2oc(N3CCOCC3)cc(=O)c2c1 49

====

assay.comment: Oral bioavailability in dog blood at 10 umol/kg
Assay type: ADME, organism-based, Canis lupus familiaris
endpoint: bioavailability (%)
Kindly answer with a numeric value in %, unit omitted.

# lookup: bioavailability of CN(C)C(=O)c1cc(CN2CCOc3c(F)cccc32)c2oc(N3CCOCC3)cc(=O)c2c1 63

====

assay.comment: Volume of distribution at steady state in hairy mouse blood at 5 umol/kg, iv and 30 umol/kg, po
Format: ADME, organism-based
details: read-out: Vdss
endpoint: Vd
Don't forget the unit after the number, please.

# lookup: Vd of CN(C)C(=O)c1cc(CN2CCOc3c(F)cccc32)c2oc(N3CCOCC3)cc(=O)c2c1 1.9 L/kg

====

assay.comment: in vitro
details: human, Caco-2
Parameter: Papp A→B at 2 h, 10 µM. Scope: all listed entries.
Don't forget the unit after the number, please.

>>> df
                                chem_smiles            val
0  C[C@@H]1CN(c2cc(=O)c3cc(C(=O)N(C)C)cc(CN(C)c4cc(F)cc(F)c4)c3o2)CCO1  55 ×10⁻⁶ cm/s

# lookup: Papp A→B at 2 h, 10 µM of COCCN(Cc1cc(C(=O)N(C)C)cc2c(=O)cc(N3CCOCC3)oc12)c1cc(F)cc(F)c1 11 ×10⁻⁶ cm/s

For CN(C)C(=O)c1cc(CN2CCOc3c(F)cc(F)cc32)c2oc(N3CCOCC3)cc(=O)c2c1 then? 9 ×10⁻⁶ cm/s

For COCCN(Cc1cc(C(=O)N(C)C)cc2c(=O)cc(N3CCO[C@H](C)C3)oc12)c1cc(F)cc(F)c1 then? 14 ×10⁻⁶ cm/s

For C[C@@H]1CN(c2cc(=O)c3cc(C(=O)N(C)C)cc(CN4CCOc5c(F)cc(F)cc54)c3o2)CCO1 then? 25 ×10⁻⁶ cm/s

For C[C@@H]1CN(c2cc(=O)c3cc(C(=O)N4CCOCC4)cc(CN4CCOc5ccc(F)cc54)c3o2)CCO1 then? 11 ×10⁻⁶ cm/s

For C[C@@H]1CN(c2cc(=O)c3cc(C(=O)N(C)C)cc(CN4CCOc5c(F)cccc54)c3o2)CCO1 then? 28 ×10⁻⁶ cm/s

For CN(C)C(=O)c1cc(CN2CCOc3c(F)cccc32)c2oc(N3CCOCC3)cc(=O)c2c1 then? 6.5 ×10⁻⁶ cm/s

====

System: Hepatocyte
assay.comment: Intrinsic clearance in mouse hepatocytes assessed per million cells
Format: ADME, cell-based
endpoint: hepatocyte CLint (µL/min/1e6 cells)
Kindly answer with a numeric value in µL/min/1e6 cells, unit omitted.

Kindly state the measured hepatocyte CLint obtained for CN(C)C(=O)c1cc(CN2CCOc3c(F)cccc32)c2oc(N3CCOCC3)cc(=O)c2c1 with Hepatocyte. 21

====

assay.comment: Volume of distribution at steady state in dog blood at 4 umol/kg, iv and 10 umol/kg, po
Format: ADME, organism-based, Canis lupus familiaris
details: read-out: Vdss
endpoint: Vd (L/kg)
Kindly answer with a numeric value in L/kg, unit omitted.

# lookup: Vd of CN(C)C(=O)c1cc(CN2CCOc3c(F)cccc32)c2oc(N3CCOCC3)cc(=O)c2c1 1.6

====

assay.comment: physchem
details: buffer, pH 7.4
Parameter: logD. Scope: all listed entries.
Respond with the number and no other words.

Worked examples, 4 molecules total:
In [3]: df
Out[3]:
                                   molecule  endpoint  val
0  CN(C)C(=O)c1cc(CN2CCOc3c(F)cc(F)cc32)c2oc(N3CCOCC3)cc(=O)c2c1      logD  2.1
1  C[C@@H]1CN(c2cc(=O)c3cc(C(=O)N(C)C)cc(CN4CCOc5ccc(F)cc54)c3o2)CCO1      logD  2.3
2  CC(c1cc(C(=O)N(C)C)cc2c(=O)cc(N3CCOCC3)oc12)N1CCOc2c(F)cc(F)cc21 (stereo not given)      logD    2
3  C[C@@H]1CN(c2cc(=O)c3cc(C(=O)N(C)C)cc(CN4CCOc5c(F)cccc54)c3o2)CCO1      logD    2

Okay, next one:
# lookup: logD of CN(C)C(=O)c1cc(CN(CCC#N)c2cc(F)cc(F)c2)c2oc(N3CCOCC3)cc(=O)c2c1 1.8

====

assay.comment: AUC in hairy mouse at 30 umol/kg, po
Format: ADME, organism-based
details: in vivo
Lab note: compare AUC with 4 µM·h, writing True if less and False if equal or more.

As a guide, the following entries are already answered.
                                chem_smiles  assigned_class
0  C[C@@H]1CN(c2cc(=O)c3cc(C(=O)N(C)C)cc(CN(C)c4cc(F)cc(F)c4)c3o2)CCO1           False
1  C[C@@H]1CN(c2cc(=O)c3cc(C(=O)N4CCOCC4)cc(CN4CCOc5ccc(F)cc54)c3o2)CCO1            True
2  C[C@@H]1CN(c2cc(=O)c3cc(C(=O)N(C)C)cc(CN4CCOc5c(F)cccc54)c3o2)CCO1           False
3  COCCN(Cc1cc(C(=O)N(C)C)cc2c(=O)cc(N3CCOCC3)oc12)c1cc(F)cc(F)c1            True
4  CN(C)C(=O)c1cc(CN2CCOc3c(F)cc(F)cc32)c2oc(N3CCOCC3)cc(=O)c2c1           False

Is AUC strictly under 4 µM·h for the entry C[C@@H]1CN(c2cc(=O)c3cc(C(=O)N4CCOCC4)cc(CN4CCOc5c(F)cccc54)c3o2)CCO1 ? True

For CN(C)C(=O)c1cc(CN(C)c2cc(F)cc(F)c2)c2oc(N3CCOCC3)cc(=O)c2c1 then? False

====

assay.comment: Intrinsic clearance in dog hepatocytes assessed per million cells
Type: ADME, cell-based, Canis lupus familiaris, Hepatocyte
endpoint: hepatocyte CLint

# lookup: hepatocyte CLint of CN(C)C(=O)c1cc(CN2CCOc3c(F)cccc32)c2oc(N3CCOCC3)cc(=O)c2c1 4 µL/min/1e6 cells

====

assay.comment: Intrinsic clearance in human hepatocytes assessed per million cells
Assay type: ADME, cell-based, Hepatocyte
details: read-out: CLH
endpoint: hepatocyte CLint

Worked examples, 3 compounds total:
>>> print(df.to_string())
                                chem_smiles          endpoint                   val
0  CN(C)C(=O)c1cc(CN(CCC#N)c2cc(F)cc(F)c2)c2oc(N3CCOCC3)cc(=O)c2c1  hepatocyte CLint  < 3 µL/min/1e6 cells
1  CN(C)C(=O)c1cc(CN2CCOc3c(F)cccc32)c2oc(N3CCOCC3)cc(=O)c2c1  hepatocyte CLint  < 1 µL/min/1e6 cells
2  CN(C)C(=O)c1cc(CN(C)c2cc(F)cc(F)c2)c2oc(N3CCOCC3)cc(=O)c2c1  hepatocyte CLint  < 5 µL/min/1e6 cells

# lookup: hepatocyte CLint of C[C@@H]1CN(c2cc(=O)c3cc(C(=O)N(C)C)cc(CN4CCOc5c(F)cccc54)c3o2)CCO1 < 3 µL/min/1e6 cells

For C[C@@H]1CN(c2cc(=O)c3cc(C(=O)N4CCOCC4)cc(CN4CCOc5ccc(F)cc54)c3o2)CCO1 then? 4 µL/min/1e6 cells

For C[C@@H]1CN(c2cc(=O)c3cc(C(=O)N4CCOCC4)cc(CN4CCOc5c(F)cccc54)c3o2)CCO1 then? < 3 µL/min/1e6 cells

For CN(C)C(=O)c1cc(CN2CCOc3ccc(F)cc32)c2oc(N3CCOCC3)cc(=O)c2c1 then? 12 µL/min/1e6 cells

For C[C@@H]1CN(c2cc(=O)c3cc(C(=O)N4CCOCC4)cc(CN4CCOc5c(F)cc(F)cc54)c3o2)CCO1 then? < 3 µL/min/1e6 cells

For COCCN(Cc1cc(C(=O)N(C)C)cc2c(=O)cc(N3CCOCC3)oc12)c1cc(F)cc(F)c1 then? 8 µL/min/1e6 cells

For CN(C)C(=O)c1cc(CN2CCOc3c(F)cc(F)cc32)c2oc(N3CCOCC3)cc(=O)c2c1 then? 7 µL/min/1e6 cells

For C[C@@H]1CN(c2cc(=O)c3cc(C(=O)N(C)C)cc(CN4CCOc5c(F)cc(F)cc54)c3o2)CCO1 then? 8 µL/min/1e6 cells
